assay: IANBD-channel fluorescence artefacts in buffer – biochemical, artefact control for cardiac RTF calcium sensitizer project, confirmation (AID 504382); settings: IANBD fluorescence interference counterscreen, EC20 Ca2+, at 7.2 µM, active compounds read high, scaled: EC20 calcium 0, EC100 calcium 100
Out of some 2,500 compounds screened, about 460 (18%) were called active. Only a sample is shown.
Measured fluorescence artifact activation of individual entries
Record the value in %, omitting the unit from your answer.

Molecule	fluorescence artifact activation, %
CC(C)CN1CCN(Cc2cccn2-c2ccc(Cl)cn2)CC1CCO (centres undefined)	26.8
O=C1c2ccccc2-c2c1cccc2C(=O)N1CCCCCC1	0.15
CCCc1cc(=O)[nH]c(SCC)n1	0.11

Query molecule follows.
Data request: What does the data say about its fluorescence artifact activation? Entry: N#C/C(=C\c1ccc(N2CCOCC2)o1)C(=O)NC1CCCCC1
Data returned: 10.5

====

assay: IANBD-channel fluorescence artefacts in buffer – biochemical, artefact control for cardiac RTF calcium sensitizer project, confirmation (AID 504382); settings: IANBD fluorescence interference counterscreen, EC20 Ca2+, at 7.2 µM, active compounds read high, scaled: EC20 calcium 0, EC100 calcium 100
Out of some 2,500 compounds screened, about 460 (18%) were called active. The list is a sample of the results.
Measured fluorescence artifact activation of individual entries
Record the value in %, omitting the unit from your answer.

Please review the following examples before continuing.
Compound	fluorescence artifact activation / %
C=CCOc1ccccc1CNc1cccc(F)c1	1.22
Cc1cccc(OCCNc2ccc(C(F)(F)F)cc2[N+](=O)[O-])c1	43.7
CCN(CC)c1ccc(/C=C/c2cccc[n+]2C)c(OC)c1	22.6
O=C(c1cn(-c2ccccc2)nc1-c1ccc(Br)cc1)N1CCOCC1	0.32
COc1cc(/C=C2\SC(=Nc3ccc(Cl)c(C(=O)O)c3)NC2=O)c(Br)c(Br)c1O	17.6

Data request: What does the data say about its fluorescence artifact activation? Entry: CCN(CC)c1ccc(/C=C/c2cc(-c3ccccc3)c3ccccc3n2)cc1
Data returned: 3.44

Data request: What does the data say about its fluorescence artifact activation? Entry: C=COc1ccc(N2C(=O)c3ccccc3OC2C)cc1 (configuration not stated)
Data returned: 2.14

Data request: What does the data say about its fluorescence artifact activation? Entry: O=[N+]([O-])c1ccc(N/N=C/c2ccc(OCc3cccc4ccccc34)cc2)nc1
Data returned: -0.02

Data request: What does the data say about its fluorescence artifact activation? Entry: CCCCCCn1c(=O)[nH]c2nc3cc(N)c(C)cc3nc2c1=O
Data returned: 45.6

Data request: What does the data say about its fluorescence artifact activation? Entry: CN1C(=O)NC(c2ccccc2[N+](=O)[O-])C2=C1CCCC2=O (configuration not stated)
Data returned: 0.1

Data request: What does the data say about its fluorescence artifact activation? Entry: O=C(Nc1ccccc1)c1ccc(NCCc2ccccc2)c([N+](=O)[O-])c1
Data returned: 0.33

Data request: What does the data say about its fluorescence artifact activation? Entry: CCc1ccc(C(=O)NNc2ccccc2F)cc1
Data returned: 1.03

Data request: What does the data say about its fluorescence artifact activation? Entry: CCCCCCCC(=O)Nc1ccc(S(=O)(=O)Nc2nccs2)cc1
Data returned: 12.5

Data request: What does the data say about its fluorescence artifact activation? Entry: COc1cc(C(=O)Oc2ccccc2/C=N/NC(=O)c2ccc(Cl)cc2)cc(OC)c1OC
Data returned: 11.5

Data request: What does the data say about its fluorescence artifact activation? Entry: CCOC(=O)c1ccc(N=c2sc(C(=O)OC)cc(=O)n2CCCN2CCOCC2)cc1
Data returned: -0.02

Data request: What does the data say about its fluorescence artifact activation? Entry: O=C(NCCCN1CCCC1=O)c1cccc(S(=O)(=O)Nc2ccc(Br)cc2)c1
Data returned: 0.07

Data request: What does the data say about its fluorescence artifact activation? Entry: CC(=O)NCC(O)c1ccc([N+](=O)[O-])cc1 (configuration not stated)
Data returned: -0.01

====

assay: IANBD-channel fluorescence artefacts in buffer – biochemical, artefact control for cardiac RTF calcium sensitizer project, confirmation (AID 504382); details: IANBD fluorescence interference counterscreen, EC20 Ca2+, at 7.2 µM, active compounds read high, scaled: EC20 calcium 0, EC100 calcium 100
Hit rate of the full screen: of about 2,500 compounds, about 460 (18%) were called active. These entries were drawn from the full list.
Value kind: fluorescence artifact activation (%)
Record the value in %, omitting the unit from your answer.

Please review the following examples before continuing.
Given smiles	Reading unit	fluorescence artifact activation
CCOc1ccc(-c2ncncc2-c2ccccc2OC)c(O)c1	%	0.08
CCOC(=O)N1CCC(Nc2nc3ccccc3nc2NS(=O)(=O)c2ccc(Cl)cc2)CC1	%	-0.02

Data request: What does the data say about its fluorescence artifact activation? Entry: O=C(CSCc1ccco1)NC1CCCC1
Data returned: 5.75

====

experiment: IANBD-channel fluorescence artefacts in buffer – biochemical, artefact control for cardiac RTF calcium sensitizer project, confirmation (AID 504382); settings: IANBD fluorescence interference counterscreen, EC20 Ca2+, at 7.2 µM, scaled: EC20 calcium 0, EC100 calcium 100
Hit rate of the full screen: of about 2,500 compounds, about 460 (18%) were called active.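 How the source made its calls: active means mean activation above a cutoff of low control average plus 3 SD from the earlier screen (cut at about 12% in these data); inactive means the rest.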 Not all results are given here.
Your response should consist of one outcome taken from active, inactive

Illustrative cases are given below, each with its answer.
Compound	Group
Cc1cc(/C=C2/C(=O)N(C)C(=S)N2C)ccc1N1CCCC1	active
O=c1ccc2cc3c4c(c2o1)CCCN4CCC3	inactive
CCOc1ccc(Nc2nc(N)c([N+](=O)[O-])c(NCc3ccccc3)n2)cc1	inactive
COc1ccc(N2C(=O)[C@@H]3[C@H](C2=O)[C@H](C(C)=O)N2c4ccccc4C=C[C@@H]32)cc1	inactive
CCC(C)(C)n1nnnc1C(c1ccc(C)cc1)N1CCN(C(=O)c2ccco2)CC1 (stereo not drawn)	inactive

Data request: Could you please tell me the result logged for Cc1cccc(CN2C(=O)N/C(=C/c3ccc(C)s3)C2=O)c1 in this assay?
Data returned: inactive

Data request: Could you please tell me the result logged for CC(C)(CO)NCC#Cc1ccccc1 in this assay?
Data returned: inactive

Data request: Could you please tell me the result logged for CCCCN1C(=O)/C(=C/C=C2\SCCN2C)SC1=S in this assay?
Data returned: inactive

Data request: Could you please tell me the result logged for CCOc1nc(OCC)c2[nH]c(C(=O)O)c(Br)c2n1 in this assay?
Data returned: inactive

Data request: Could you please tell me the result logged for Cc1ccc(N=Nc2c(O)n(CN3CCOCC3)c3ccccc23)cc1 in this assay?
Data returned: inactive

Data request: Could you please tell me the result logged for CCOc1cccc2c1OC(c1cc(OC)c(OC)c(OC)c1)N1N=C(c3ccc(C)o3)CC21 (stereo not drawn) in this assay?
Data returned: inactive

====

Measured fluorescence artifact activation of individual entries
test: IANBD-channel fluorescence artefacts in buffer – biochemical, artefact control for cardiac RTF calcium sensitizer project, confirmation (AID 504382); conditions: IANBD fluorescence interference counterscreen, EC20 Ca2+, at 7.2 µM, active compounds read high, scaled: EC20 calcium 0, EC100 calcium 100
About 460 (18%) of roughly 2,500 compounds were called active. These entries were drawn from the full list.
Record the value in %, omitting the unit from your answer.

Please review the following examples before continuing.
Compound	Value kind	Numeric result
COC(=O)c1c(NC(=O)c2ccnn2C)sc(C)c1C	fluorescence artifact activation	0.09
CN1CC=C2C(C#N)=C(N)C(C#N)(C#N)[C@H](c3ccoc3)[C@H]2C1	fluorescence artifact activation	8.68
CN(C)c1ccc(/C=C(/C#N)C(=O)NCc2ccccc2)o1	fluorescence artifact activation	2.9
O=[N+]([O-])c1ccc(N2N=C(c3ccccc3)CC2c2ccccc2O)cc1 (stereo not drawn)	fluorescence artifact activation	47.5
CC1=C/C(=C\C=C(C#N)C#N)N(C)c2ccccc21	fluorescence artifact activation	0.3
O=C(Cc1ccccc1)Nc1cccc(-c2nc3ncccc3o2)c1	fluorescence artifact activation	0.02

Data request: What does the data say about its fluorescence artifact activation? Entry: COc1ccc(N=Nc2nc3cc(Br)c(Br)cc3n2C)c(OC)c1
Data returned: 765

Data request: What does the data say about its fluorescence artifact activation? Entry: COCCCN1C(=O)/C(=C/c2ccc(CNS(=O)(=O)c3ccccc3)o2)C(C(=O)OC)=C1C
Data returned: 0.04

Data request: What does the data say about its fluorescence artifact activation? Entry: COc1ccc(N=Nc2nc3ccc(Br)cc3n2C)cc1
Data returned: 0.16

Data request: What does the data say about its fluorescence artifact activation? Entry: O=C(Nc1ccccc1F)C(=Cc1sc(N2CCOCC2)nc1-c1ccccc1)C(=O)Nc1ccccc1F
Data returned: 0.15

Data request: What does the data say about its fluorescence artifact activation? Entry: Oc1ccc2nnc3c(Br)cnn3c2c1
Data returned: 0.07

====

experiment: IANBD-channel fluorescence artefacts in buffer – biochemical, artefact control for cardiac RTF calcium sensitizer project, confirmation (AID 504382); settings: IANBD fluorescence interference counterscreen, EC20 Ca2+, at 7.2 µM, active compounds read high, scaled: EC20 calcium 0, EC100 calcium 100
About 460 (18%) of roughly 2,500 compounds were called active. A selection follows.
Measured fluorescence artifact activation of individual entries
Record the value in %, omitting the unit from your answer.

Compound	Numeric result
Cc1c2c(n3c(nc4ccccc43)c1C#N)N(CCN1CCOCC1)CC2	0.13
Cc1nc(Cl)c2c(n1)NC1=C(O2)C(=O)CCC1	0.77
CCOC(=O)Cn1nc2sc3ccccc3n2c(=O)c1=O	-0.05

Data request: What does the data say about its fluorescence artifact activation? Entry: COc1ccc(CN2CNc3c(c(=O)n(C)c(=O)n3C)C2)cc1
Data returned: 6.35
